Species on record: Rattus norvegicus
RUN DESCRIPTION: Effective dose required for anti-vasopressor activity in phenoxybenzamine-treated rats under urethane anesthesia
Format: functional
READOUT NAME: Effective dose (nM/kg)

COMPOUND STRING	READOUT NAME	REPORTED
CC[C@@H](C)[C@H]1NC(=O)CC2(CCCCC2)SSC[C@@H](C(=O)N2CCC[C@H]2C(=O)N[C@@H](CCCN=C(N)N)C(=O)NCC(N)=O)NC(=O)[C@H](CC(N)=O)NC(=O)[C@H](C(C)C)NC(=O)[C@H](Cc2ccccc2)NC1=O	Effective dose	8.2
CC(C)[C@@H]1NC(=O)[C@H](Cc2ccccc2)NC(=O)[C@@H](C)NC(=O)CC2(CCCCC2)SSC[C@@H](C(=O)N2CCC[C@H]2C(=O)N[C@@H](CCCN=C(N)N)C(=O)NCC(N)=O)NC(=O)[C@H](CC(N)=O)NC1=O	Effective dose	177
